Where these numbers come from: patent US8633206B2

// values below are reported IC50
biological target: JAK2 (Homo sapiens (Human), UniProt O60674); assay: JAK enzymatic assay (peptide mobility shift), JAK2; format: biochemical; details: recombinant JAK2 2 nM, JAKtide peptide, 150 minutes
Sequence (O60674 808-1132): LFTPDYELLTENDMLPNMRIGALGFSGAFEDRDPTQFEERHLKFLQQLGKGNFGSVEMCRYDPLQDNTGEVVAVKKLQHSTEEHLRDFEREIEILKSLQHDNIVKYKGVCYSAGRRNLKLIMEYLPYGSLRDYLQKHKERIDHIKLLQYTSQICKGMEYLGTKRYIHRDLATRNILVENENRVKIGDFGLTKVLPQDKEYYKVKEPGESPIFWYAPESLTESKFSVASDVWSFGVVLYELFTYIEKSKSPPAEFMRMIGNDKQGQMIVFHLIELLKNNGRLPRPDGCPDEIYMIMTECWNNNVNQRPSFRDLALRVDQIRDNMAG
API: value field is a number in nM; no unit string.

1. Cc1cc(CC[C@]2(O)CCN(S(=O)(=O)C[C@H]3CC[C@H](N(C)c4ncnc5[nH]ccc45)CC3)C2)on1; 46.2

# input for lookup
Ask | Please provide the recorded IC50 for CN(c1ncnc2[nH]ccc12)[C@H]1CC[C@H](CS(=O)(=O)N2CC[C@H](c3ccccc3F)C2)CC1 , tested on JAK2 (Homo sapiens (Human), UniProt O60674).
Reply | 37.4

###

molecular target: UniProt:O60674; assay: JAK enzymatic assay (peptide mobility shift), JAK2; details: recombinant JAK2 2 nM, JAKtide peptide, 150 minutes
Reported IC50 by item:
Give the quantity in nM, number only.

1. CN(c1ncnc2[nH]ccc12)[C@H]1CC[C@H](CS(=O)(=O)N2CCN(c3ncccc3C#N)CC2)CC1; 17.6

With those in mind, consider the next compound.
Ask | Item under review: CN(c1ncnc2[nH]ccc12)[C@H]1CC[C@H](CS(=O)(=O)N2CCC[C@H](CO)C2)CC1 . Reported IC50?
Reply | 20.1

###

Listing of entries alongside the reported IC50.
target: JAK3 (Homo sapiens (Human)); test: JAK enzymatic assay (peptide mobility shift), JAK3; settings: recombinant JAK3 1 nM, JAKtide peptide, 90 minutes
The answer is to be given in nM; state only the numeric part.

1) CN(c1ncnc2[nH]ccc12)[C@H]1CC[C@H](CS(=O)(=O)N2CC[C@H](CO)C2)CC1; 200

Ask | Please state recorded IC50 (tested on JAK3 (Homo sapiens (Human))) of COC(=O)NC1CN(S(=O)(=O)C[C@H]2CC[C@H](N(C)c3ncnc4[nH]ccc34)CC2)C1
Reply | 382

Ask | Requested read-out IC50, target or system JAK3 (Homo sapiens (Human)), entry CN(c1ncnc2[nH]ccc12)[C@H]1CC[C@H](CS(=O)(=O)N2CCC[C@H](C#N)C2)CC1
Reply | 263

Ask | Requested read-out IC50, target or system JAK3 (Homo sapiens (Human)), entry CN(c1ncnc2[nH]ccc12)[C@H]1CC[C@H](CS(=O)(=O)N2C[C@@H](O)[C@@H](O)C2)CC1
Reply | 80.8

Ask | Given the entry CN1CCN(S(=O)(=O)C[C@H]2CC[C@H](N(C)c3ncnc4[nH]ccc34)CC2)CC1 , what IC50 was observed with JAK3 (Homo sapiens (Human))?
Reply | 1.29

Ask | Fill in the recorded IC50 for this molecule, with JAK3 (Homo sapiens (Human)) as test system: CN(c1ncnc2[nH]ccc12)[C@H]1CC[C@H](CS(=O)(=O)N2CCC[C@H](CS(N)(=O)=O)C2)CC1
Reply | 128

Ask | Lookup: IC50 / JAK3 (Homo sapiens (Human)) / CN(c1ncnc2[nH]ccc12)[C@H]1CC[C@H](CS(=O)(=O)N2CCCC(C(F)(F)F)C2)CC1 (stereo partly drawn)
Reply | 604

Ask | Lab note: need IC50 for CN(c1ncnc2[nH]ccc12)[C@H]1CC[C@H](CS(=O)(=O)N2CCSC2)CC1 on JAK3 (Homo sapiens (Human)), anyone have it?
Reply | 122

Ask | Which IC50 is reported with JAK3 (Homo sapiens (Human)) for this entry: CN(c1ncnc2[nH]ccc12)[C@H]1CC[C@H](CS(=O)(=O)N2CC(c3ncccn3)C2)CC1 ?
Reply | 294

Ask | Give IC50 (JAK3 (Homo sapiens (Human))) of the following molecule: CN(c1ncnc2[nH]ccc12)[C@H]1CC[C@H](CS(=O)(=O)N2CC[C@H](COCc3cccnc3)C2)CC1
Reply | 462

Ask | Recorded IC50 for C[C@H]1CN(S(=O)(=O)C[C@H]2CC[C@H](N(C)c3ncnc4[nH]ccc34)CC2)C[C@@H]1CO [Example 80] with JAK3 (Homo sapiens (Human)), please?
Reply | 205

Ask | # returns recorded IC50 (system: JAK3 (Homo sapiens (Human))) for CN(c1ncnc2[nH]ccc12)[C@H]1CC[C@H](CS(=O)(=O)N2CCC(C)(O)CC2)CC1
Reply | 243

Ask | # get_value(readout= IC50, system= JAK3 (Homo sapiens (Human))) for COc1ccccc1CS(=O)(=O)[C@H]1CCN(S(=O)(=O)C[C@H]2CC[C@H](N(C)c3ncnc4[nH]ccc34)CC2)C1
Reply | 96.6

Ask | Query the reported IC50 for JAK3 (Homo sapiens (Human)); item: CCC1(C(N)=O)CCN(S(=O)(=O)C[C@H]2CC[C@H](N(C)c3ncnc4[nH]ccc34)CC2)CC1
Reply | 353

Ask | # query: IC50 | item COC[C@@H]1CCN(S(=O)(=O)C[C@H]2CC[C@H](N(C)c3ncnc4[nH]ccc34)CC2)C1 | system: JAK3 (Homo sapiens (Human))
Reply | 138

###

biological target: JAK2 (Homo sapiens (Human)); test: JAK enzymatic assay (peptide mobility shift), JAK2; conditions: recombinant JAK2 2 nM, JAKtide peptide, 150 minutes
MEASUREMENT NAME: log10 of IC50 (log10 of the value in nM)
Log10 applied to IC50; unit prior to transform: nM.

Ask | Fill blank: measured log10 of IC50 of the compound CN(c1ncnc2[nH]ccc12)[C@H]1CC[C@H](CS(=O)(=O)N2CCN(c3ccccn3)CC2)CC1 is ____.
Reply | 1.35

Ask | Would you kindly share the measured log10 of IC50 for CN(c1ncnc2[nH]ccc12)[C@H]1CC[C@H](CS(=O)(=O)N2CC[C@H](NC(=O)OC(C)(C)C)C2)CC1 ?
Reply | 1.68

Ask | Recorded log10 of IC50 for CN(c1ncnc2[nH]ccc12)[C@H]1CC[C@H](CS(=O)(=O)N2CC[C@@](O)(COc3cccc(F)c3)C2)CC1 , please?
Reply | 1.42

Ask | Look up log10 of IC50: CN(c1ncnc2[nH]ccc12)[C@H]1CC[C@H](CS(=O)(=O)N2CC[C@H](CO)C2)CC1
Reply | 1.16

Ask | Fill in: log10 of IC50 of CN(c1ncnc2[nH]ccc12)[C@H]1CC[C@H](CS(=O)(=O)N2CC[C@@H](CO)C2)CC1 is ___
Reply | 0.92

Ask | Look at this compound and give its reported log10 of IC50. CCN1CCN(C[C@H]2CCN(S(=O)(=O)C[C@H]3CC[C@H](N(C)c4ncnc5[nH]ccc45)CC3)C2)C(=O)C1=O
Reply | 1.96

Ask | Find the recorded log10 of IC50 belonging to C[C@@H]1C[C@@H](CS(=O)(=O)N2CCC[C@H](O)C2)CC[C@@H]1N(C)c1ncnc2[nH]ccc12 and report it.
Reply | 1.08

###

molecular target: JAK1 (Homo sapiens (Human), UniProt P23458); test: JAK enzymatic assay (peptide mobility shift), JAK1; details: recombinant JAK1 20 nM, IRS-1 peptide, 240 minutes
Sequence (P23458 whole entry): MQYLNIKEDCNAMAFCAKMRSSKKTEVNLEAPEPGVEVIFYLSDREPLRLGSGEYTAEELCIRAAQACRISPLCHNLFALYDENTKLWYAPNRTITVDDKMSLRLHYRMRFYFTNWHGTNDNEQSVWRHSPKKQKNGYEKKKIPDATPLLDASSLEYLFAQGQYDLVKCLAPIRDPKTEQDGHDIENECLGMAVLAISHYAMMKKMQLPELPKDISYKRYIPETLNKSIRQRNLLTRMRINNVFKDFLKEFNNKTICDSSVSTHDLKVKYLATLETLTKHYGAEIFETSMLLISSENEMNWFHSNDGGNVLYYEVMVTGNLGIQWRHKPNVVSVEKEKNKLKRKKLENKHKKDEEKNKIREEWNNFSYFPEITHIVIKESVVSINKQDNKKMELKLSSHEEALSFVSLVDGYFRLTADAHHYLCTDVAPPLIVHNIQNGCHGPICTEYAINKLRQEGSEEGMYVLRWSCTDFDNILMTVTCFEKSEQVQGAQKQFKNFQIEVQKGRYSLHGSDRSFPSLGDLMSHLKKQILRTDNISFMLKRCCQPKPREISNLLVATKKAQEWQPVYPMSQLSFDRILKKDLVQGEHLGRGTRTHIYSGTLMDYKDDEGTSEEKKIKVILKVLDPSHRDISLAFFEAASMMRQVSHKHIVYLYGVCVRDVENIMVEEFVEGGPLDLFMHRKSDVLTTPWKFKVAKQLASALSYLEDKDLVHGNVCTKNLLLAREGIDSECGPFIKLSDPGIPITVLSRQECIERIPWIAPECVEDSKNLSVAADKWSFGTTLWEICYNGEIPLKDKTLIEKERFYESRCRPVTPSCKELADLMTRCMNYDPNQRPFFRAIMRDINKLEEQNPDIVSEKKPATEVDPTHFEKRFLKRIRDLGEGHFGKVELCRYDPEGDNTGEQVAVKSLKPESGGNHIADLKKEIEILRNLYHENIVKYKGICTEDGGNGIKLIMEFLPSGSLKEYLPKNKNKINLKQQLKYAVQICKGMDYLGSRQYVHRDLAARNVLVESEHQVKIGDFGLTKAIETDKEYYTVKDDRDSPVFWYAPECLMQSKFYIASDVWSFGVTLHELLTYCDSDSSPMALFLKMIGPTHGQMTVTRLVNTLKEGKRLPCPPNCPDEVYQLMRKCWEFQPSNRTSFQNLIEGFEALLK
We begin with a simple list: items and their reported pIC50.
pIC50 is a log-scale quantity: -log10 of the concentration expressed in molar.

1. CN(c1ncnc2[nH]ccc12)[C@H]1CC[C@H](CS(=O)(=O)N2CCC[C@@](C)(O)C2)CC1; 8.12

Turning to the following compound.
Ask | What value of pIC50 has been recorded for this entry: C[C@@H]1C[C@@H](CS(=O)(=O)N2CCC[C@H](O)C2)CC[C@@H]1N(C)c1ncnc2[nH]ccc12
Reply | 8.28

###

biological target: JAK3 (Homo sapiens (Human), UniProt P52333); test: JAK enzymatic assay (peptide mobility shift), JAK3; settings: recombinant JAK3 1 nM, JAKtide peptide, 90 minutes
Sequence (P52333 781-1124): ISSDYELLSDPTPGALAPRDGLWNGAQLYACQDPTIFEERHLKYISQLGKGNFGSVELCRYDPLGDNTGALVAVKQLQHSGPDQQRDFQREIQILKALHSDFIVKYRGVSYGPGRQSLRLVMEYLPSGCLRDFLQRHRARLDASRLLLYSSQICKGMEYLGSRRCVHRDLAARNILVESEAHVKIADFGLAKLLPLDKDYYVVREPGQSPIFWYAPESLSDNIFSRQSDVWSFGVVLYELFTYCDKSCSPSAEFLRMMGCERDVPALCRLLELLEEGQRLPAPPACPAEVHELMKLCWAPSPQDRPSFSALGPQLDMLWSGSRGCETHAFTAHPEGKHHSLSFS
MEASUREMENT NAME: pIC50
Conceptually, pIC50 converts a concentration in mol/L into minus its log10.

Ask | Requested read-out: pIC50. Entry: CN(c1ncnc2[nH]ccc12)[C@H]1CC[C@H](CS(=O)(=O)N2CC[C@H](c3ccccc3F)C2)CC1
Reply | 6.54

###

Biological target: JAK1 (Homo sapiens (Human), UniProt P23458)
Test: JAK enzymatic assay (peptide mobility shift), JAK1
Conditions: recombinant JAK1 20 nM, IRS-1 peptide, 240 minutes
Protocol: Recombinant JAK1 (Catalog Number PV4775), JAK2 (Catalog Number PV4210) and JAK3 (Catalog Number PV3855) were purchased from (Invitrogen Corporation, Madison, Wis.). […] Compounds were diluted serially in 100% dimethyl sulfoxide and tested in an 11 point dose response in duplicate or quadruplicate (200 nl of compound/DMSO was added per 10 L reaction). […] Data was analyzed using Hits Well Analyzer Software from (Caliper Life Sciences) to obtain the amount of product formed. […]
MEASUREMENT NAME: IC50
Write the numeric value and follow it with the unit.

A selection of reference data follows.
1) CN(c1ncnc2[nH]ccc12)[C@H]1CC[C@H](CS(=O)(=O)N2CC[C@H](NC(=O)C(F)(F)F)C2)CC1; 19.1 nM
2) CN(c1ncnc2[nH]ccc12)[C@H]1CC[C@H](CS(=O)(=O)N2CCCC(OCC(N)=O)C2)CC1 (stereo partly shown); 2.96 nM
3) CC1CCN(S(=O)(=O)C[C@H]2CC[C@H](N(C)c3ncnc4[nH]ccc34)CC2)CC1; 16.4 nM

Now, please, on to the next compound.
Ask | Reported IC50 for CN(c1ncnc2[nH]ccc12)[C@H]1CC[C@H](CS(=O)(=O)N2CC[C@H](Oc3ccccc3C#N)C2)CC1 : what is it?
Reply | 6.73 nM
